system: HCC1937; experiment: relative cell viability, compound + erastin, vs DMSO (fraction of DMSO control); higher = less growth inhibition; settings: 72 h;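 also: viability read by CCK-8 kit in 96-well plates, part of a combination screen pairing lipid-metabolism-targeting compounds with erastin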
Where a name gives a salt, the structure may show the parent alone.
Simple rule here: relative cell viability less than 0.6 is fulfilled, otherwise not fulfilled.

q: Is it true that relative cell viability reported for CC1(N)CCN(c2cnc(-c3cccc(Cl)c3Cl)c(N)n2)CC1 [SHP099 hydrochloride] + CCOc1ccccc1-n1c(C(C)N2CCN(C(=O)COc3ccc(Cl)cc3)CC2)nc2ccccc2c1=O is less than 0.6?
a: not fulfilled

q: Is it true that relative cell viability reported for CC(C)(C)N1C(=O)C(Nc2ccc(N3CCCCC3)cc2)=C(c2ccccc2)S1(=O)=O + CCOc1ccccc1-n1c(C(C)N2CCN(C(=O)COc3ccc(Cl)cc3)CC2)nc2ccccc2c1=O is less than 0.6?
a: not fulfilled

q: Is it true that relative cell viability reported for CCN(CC)c1ccc(C=NNC(=O)c2ccncc2)c(O)c1 + CCOc1ccccc1-n1c(C(C)N2CCN(C(=O)COc3ccc(Cl)cc3)CC2)nc2ccccc2c1=O is less than 0.6?
a: fulfilled

q: Is it true that relative cell viability reported for CC(C)(CCCCCC(O)CCCCCC(C)(C)C(=O)O)C(=O)O + CCOc1ccccc1-n1c(C(C)N2CCN(C(=O)COc3ccc(Cl)cc3)CC2)nc2ccccc2c1=O is less than 0.6?
a: fulfilled
